Could you please report measured pEC50 for the items listed next?
Target: T1, human EGFRvIII protein on the cell surface (human, UniProt P00533 25-1210)
T1 construct: whole, on cells; the cell line is named under assay; also called hEGFRvIII; U87MG-hEGFRvIII
Experiment: FACS on U87MG-EGFRvIII cells
Experimental: The preparation of U87MG-EGFRvIII required for FACS detection is as described in the preparation of the immunogen B in example 1. Normal human primary hepatocytes are purchased from BioreclamationIVT, and A431 tumor cells are purchased from ATCC. […] The plate is centrifugally washed twice with the FACS buffer, added with 100 μL/well of a 1:1000 diluted fluorescence (Alexa 488) labeled secondary antibody (purchased from Invitrogen), and incubated on ice for 1 hour. […]
Kindly note that pEC50 refers to -log10 of the concentration in mol/L and answer with the value alone.

Value lookup for pEC50; key = Humanized antibody h63A10A7-24 (antibody, human IgG1, V domains shown, also called VH-g4/VL-g6) VH: QVQLVQSGAEVKKPGASVKVSCKASGYTFISFTMHWVKQRPGQGLEWIGYINPNSGYTKYNQKFKDKATLTRDTSTSTVYMELSSLRSEDTAVYYCTRGGGRGFAYWGQGTLVTVSS VL: DILMTQSPSSLSASVGDRVTITCHASQDINSNIGWLQQKPGKSFKALIYHGTNLEDGVPSRFSGSGSGTDYTLTISSLQPEDFATYYCVQYAQFPFTFGQGTKLEIK
8.74

Value lookup for pEC50; key = Humanized antibody h75G7C6-15 (antibody, human IgG1, V domains shown, also called VH-g2/VL-g2) VH: QVQLVQSGAEVKKPGASVKVSCKASGYTFTDYNMDWVKQAPGQGLEWIGDINPNNADTIYNQKFKGRVTLTVDKSTSTVYMELSSLRSEDTAVYYCARGDYDGYYPVYYAMDYWGQGTTVTVSS VL: ENVLTQSPATLSLSPGERATLSCRASSSVSSSYLHWYQQKPGQSPRLLIFSTSNLAAGIPARFSGSGSGTDYTLTISSLEPEDFAVYYCQQYSGYPLTFGGGTKVEIK
8.19

Value lookup for pEC50; key = Humanized antibody h63A10A7-23 (antibody, human IgG1, V domains shown, also called VH-g4/VL-g5) VH: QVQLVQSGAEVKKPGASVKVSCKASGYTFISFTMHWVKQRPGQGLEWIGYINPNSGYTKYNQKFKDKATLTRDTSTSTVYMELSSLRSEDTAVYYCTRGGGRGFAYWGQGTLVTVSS VL: DILMTQSPSSLSASVGDRVTITCHASQDINSNIGWLQQKPGKAPKALIYHGTNLEDGVPSRFSGSGSGADYTLTISSLQPEDFATYYCVQYAQFPFTFGQGTKLEIK
8.34

Value lookup for pEC50; key = Humanized antibody h75G7C6-14 (antibody, human IgG1, V domains shown, also called VH-g2/VL-g1) VH: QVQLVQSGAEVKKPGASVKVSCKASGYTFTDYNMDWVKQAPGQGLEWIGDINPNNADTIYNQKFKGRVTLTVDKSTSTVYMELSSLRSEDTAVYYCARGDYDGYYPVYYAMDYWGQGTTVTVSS VL: ENVLTQSPATLSLSPGERATLSCRASSSVSSSYLHWYQQKPGQAPRLLIFSTSNLAAGIPARFSGSGSGTDYTLTISSLEPEDFAVYYCQQYSGYPLTFGGGTKVEIK
8.20

Value lookup for pEC50; key = Humanized antibody h63A10A7-22 (antibody, human IgG1, V domains shown, also called VH-g4/VL-g3) VH: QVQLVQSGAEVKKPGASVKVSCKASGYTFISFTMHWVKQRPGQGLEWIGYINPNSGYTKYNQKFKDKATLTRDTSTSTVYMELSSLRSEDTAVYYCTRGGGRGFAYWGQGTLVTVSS VL: DIQMTQSPSSLSASVGDRVTITCHASQDINSNIGWLQQKPGKSFKALIYHGTNLEDGVPSRFSGSGSGADYTLTISSLQPEDFATYYCVQYAQFPFTFGQGTKLEIK
8.80

// data source = patent US20210032351A1
